# EXPERIMENTAL TARGET: PRKAA1 (human)
# MEASUREMENT CONTEXT: compound 10.0 µM
QUANTITY: inhibition (%)

Cn1cnc2c(NCc3ccccc3)nc(NCCO)nc21 = 0
O=C1NC(=O)c2c1c1c3ccccc3[nH]c1c1[nH]c3ccccc3c21 = 60
CC(C)[C@H](CO)Nc1nc(Nc2ccc(C(=O)O)c(Cl)c2)c2ncn(C(C)C)c2n1 = 0
N#CC(=C(\N)Sc1ccccc1N)/C(C#N)=C(/N)Sc1ccccc1N = 0
CS(=O)c1ccc(-c2nc(-c3ccc(F)cc3)c(-c3ccncc3)[nH]2)cc1 (stereo not drawn) = 0
Nc1ncnc2[nH]nc(Nc3ccc(F)cc3)c12 = 0

A: COc1cc2ncnc(Nc3ccc(F)c(Cl)c3)c2cc1OCCCN1CCOCC1
B: Cc1[nH]c(/C=C2\C(=O)Nc3ccc(S(=O)(=O)Cc4c(Cl)cccc4Cl)cc32)c(C)c1C(=O)N1CCC[C@@H]1CN1CCCC1
C: COc1ccc(C(=O)Nc2sc3c(c2C(N)=O)CCCC3)cc1OC
D: CC(C)[C@H](CO)Nc1nc(Nc2cc(N)cc(Cl)c2)c2ncn(C(C)C)c2n1
E: CN(C)c1ccc(/C=C2\C(=O)Nc3ccccc32)cc1
QUERY: Hello, I need these entries ordered by inhibition, highest reading first. Thanks! Put the labels in the order asked and list them.
RESULT: B, C, D, E, A
(B: 59%, C: 9%, D: 5%, E: 1%, A: 0%)
